details: pH 7.4
Description: Fraction ionized (pH 7.4)
Would you kindly list Fraction ionised for each of these compounds?

The cases that follow already have their Fraction ionised on record.
C[C@@H]1C[C@H]2[C@@H]3CCC4=CC(=O)C=C[C@]4(C)[C@@]3(F)[C@@H](O)C[C@]2(C)[C@@]1(O)C(=O)CO    0
CN/C(=C\[N+](=O)[O-])NCCSCc1csc(CN(C)C)n1    0.134

Hi there! I need Fraction ionised for each item below, if you can.
1. C[C@]12C=CC(=O)C=C1CC[C@@H]1[C@@H]2C(=O)C[C@@]2(C)[C@H]1CC[C@]2(O)C(=O)CO
2. Cc1cc(=O)n(-c2ccccc2)n1C [ANTIPYRINE]
3. CNC(=C[N+](=O)[O-])NCCSCc1ccc(CN(C)C)o1
4. CC(=O)Nc1ccc(O)cc1

Response line:
1. 0
2. 0
3. 0.922
4. 0

Hi there! I need Fraction ionised for each item below, if you can.
1. CN1[C@@H]2CC[C@H]1C[C@@H](OC(=O)C(CO)c1ccccc1)C2 (some centres undefined)
2. CCCCc1oc2ccccc2c1C(=O)c1cc(I)c(OCCN(CC)CC)c(I)c1
3. CCN(CC)CCNC(=O)c1ccc(N)cc1 [PROCAINAMIDE]
4. Clc1cccc(Cl)c1N=C1NCCN1
5. Oc1ncnc2[nH]ncc12

Response line:
1. 0.996
2. 0.955
3. 0.986
4. 0.817
5. 0

Hi there! I need Fraction ionised for each item below, if you can.
1. CCC(C)n1ncn(-c2ccc(N3CCN(c4ccc(OCC5COC(Cn6cncn6)(c6ccc(Cl)cc6Cl)O5)cc4)CC3)cc2)c1=O (centres undefined)
2. C[C@]12CC[C@@H]3c4ccc(O)cc4CC[C@H]3[C@@H]1CC[C@@H]2O
3. Cc1ncc([N+](=O)[O-])n1CCO
4. CN1C[C@H](C(=O)N[C@]2(C)O[C@@]3(O)[C@@H]4CCCN4C(=O)[C@H](Cc4ccccc4)N3C2=O)C=C2c3cccc4[nH]cc(c34)C[C@H]21
5. Cn1c(=O)c2c(ncn2C)n(C)c1=O
6. CCN(CC)CCNC(=O)c1cc(Cl)c(N)cc1OC [METOCLOPRAMIDE]

Response line:
1. 0
2. 0
3. 0
4. 0.074
5. 0
6. 0.988

Hi there! I need Fraction ionised for each item below, if you can.
1. CC(=O)CCCCn1c(=O)c2c(ncn2C)n(C)c1=O
2. O=C1CN=C(c2ccccn2)c2cc(Br)ccc2N1

Response line:
1: 0; 2: 0
